protocol: Phase 1 SAD/MAD study: plasma pharmacokinetics of Compound 1a (LC-MS-MS, noncompartmental analysis)
Assay type: in vivo, human
conditionInfo: human, plasma, oral, 2000 mg, single dose 2000 mg, healthy volunteers, geometric mean (geometric CV %); read-out: Tmax
propertyName: Tmax (h)
Number in h, nothing else.

O.O=C([O-])c1nn[nH]c1Oc1ccc(-c2ccc(C3CC(F)(F)C3)cc2)cc1.[Na+] [Compound 1a] yielded Tmax of 2.9

----------
protocol: Phase 1 SAD/MAD study: plasma pharmacokinetics of Compound 1a (LC-MS-MS, noncompartmental analysis)
Type: in vivo, human
conditionInfo: human, plasma, po, 3000 mg, SAD 3,000 mg oral, fasted, average, plasma; read-out: AUC0-24
propertyName: AUC(0-t)

// recorded AUC(0-t) for O.O=C([O-])c1nn[nH]c1Oc1ccc(-c2ccc(C3CC(F)(F)C3)cc2)cc1.[Na+] : 184 µg·h/mL
